Assay: clinical
Conditions: human, in vivo, iv
reported_endpoint: fraction unbound
Give the figure by itself; no unit, no explanation.

In the examples that follow, each entry is paired with its recorded fraction unbound.
Cc1cn([C@H]2C=C[C@@H](CO)O2)c(=O)[nH]c1=O [STAVUDINE] = 1
COC(=O)C(c1ccccc1)C1CCCCN1 (stereo not given) [METHYLPHENIDATE] = 0.85

The molecule listed as O=C(O)c1cc(-c2ccc(F)cc2F)ccc1O [DIFLUNISAL] has a reported fraction unbound of 0.0016

Lab note: CO[C@@]1(NC(=O)C2SC(=C(C(N)=O)C(=O)O)S2)C(=O)N2C(C(=O)O)=C(CSc3nnnn3C)CS[C@@H]21 (stereo not given in full) [CEFOTETAN] gave fraction unbound of 0.15

Kindly note the recorded fraction unbound for CCCC(=O)OCOC(=O)C1=C(C)NC(C)=C(C(=O)OC)C1c1cccc(Cl)c1Cl (stereo not given) [CLEVIDIPINE] , which is 0.0038

Reported fraction unbound for NC(=O)c1ncn([C@@H]2O[C@H](CO)[C@@H](O)[C@H]2O)n1 [RIBAVIRIN] was 1

The value of fraction unbound measured for the molecule CCCCS(=O)(=O)N[C@@H](Cc1ccc(OCCCCC2CCNCC2)cc1)C(=O)O [TIROFIBAN] turned out to be 0.36

Source: ChEMBL document CHEMBL1614632
